Molecular target: furin, P09958;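 further: purified furin at 1:10 enzyme:substrate in 50 mM HEPES pH 7.5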
Sequence (P09958 whole entry): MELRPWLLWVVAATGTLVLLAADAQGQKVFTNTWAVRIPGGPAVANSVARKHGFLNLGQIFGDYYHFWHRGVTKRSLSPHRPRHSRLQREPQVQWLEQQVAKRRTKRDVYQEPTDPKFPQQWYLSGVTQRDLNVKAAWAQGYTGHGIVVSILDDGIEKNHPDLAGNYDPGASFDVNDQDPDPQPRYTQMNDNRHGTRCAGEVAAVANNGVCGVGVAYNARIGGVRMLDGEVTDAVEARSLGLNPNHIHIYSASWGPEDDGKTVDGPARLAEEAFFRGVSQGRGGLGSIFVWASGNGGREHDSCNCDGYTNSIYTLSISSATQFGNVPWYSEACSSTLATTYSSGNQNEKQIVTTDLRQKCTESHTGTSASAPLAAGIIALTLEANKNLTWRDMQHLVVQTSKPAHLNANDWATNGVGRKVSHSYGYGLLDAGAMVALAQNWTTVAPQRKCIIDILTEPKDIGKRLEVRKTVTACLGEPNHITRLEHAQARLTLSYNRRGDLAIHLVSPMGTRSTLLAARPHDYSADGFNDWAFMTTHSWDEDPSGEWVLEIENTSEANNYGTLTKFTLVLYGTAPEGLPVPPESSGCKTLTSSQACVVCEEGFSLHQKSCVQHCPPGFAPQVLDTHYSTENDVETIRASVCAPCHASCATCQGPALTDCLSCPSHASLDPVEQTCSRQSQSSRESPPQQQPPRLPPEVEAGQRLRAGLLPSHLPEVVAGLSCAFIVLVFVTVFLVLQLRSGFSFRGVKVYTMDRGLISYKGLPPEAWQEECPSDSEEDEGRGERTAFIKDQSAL
Assay: furin cleavage Z-score vs untreated control; higher = more cleavage, active = 3.5 or more, inactive = 1 or less, 8 variable residues between constant flanks
Details: 15 min
The list shows a part of the results. The true hit rate is not given.
Quick rule for you: furin cleavage Z-score at 0.4 or higher means true, lower means false.

Is furin cleavage Z-score for CADWLRQRRTAGNASASA [FS-1317] at or above 0.4?
true

Is furin cleavage Z-score for CARQKRDPAFAGNASASA [FS-2289] at or above 0.4?
true

Is furin cleavage Z-score for CAEVPCHRYSAGNASASA [HC2389] at or above 0.4?
true

Is furin cleavage Z-score for CASTQCSAHLAGNASASA [HC2522] at or above 0.4?
false

Entry source: the supplement of paper PMC3545927
